// data source = paper PMC6272778

The compounds below have reported pIC50 for UniProt:P04585.
Entry type: numeric. Quantity: pIC50, the -log10 of concentration in molar units.

Example compounds with recorded pIC50:
{"columns": ["compound", "measured"],
 "data": [
  ["COc1cc([C@@H]2OC[C@@]3(O)[C@@H]2CO[C@H]3c2cc(OC)c(O)c(OC)c2)ccc1O [Compound 1, (+)-8-hydroxy-7,7'-bis-epi-fraxiresinol]", 4.27],
  ["COc1cc([C@@H]2OC[C@@]3(O)[C@@H]2CO[C@H]3c2ccc(O)c(OC)c2)ccc1O [Compound 2, (+)-8-hydroxy-7,7'-bis-epi-pinoresinol]", 4.21],
  ["O=c1cc(-c2ccccc2)oc2cc(O)c(O)c(O)c12 [baicalein, reference compound]", 5.86],
  ["C=CC1C(OC2OC(CO)C(O)C(O)C2O)OC=C(C(=O)OC2CC3C(C(=O)OC)=COC(OC4OC(CO)C(O)C(O)C4O)C3C2C)C1CC1OC(C)C(C)O1 (centres unmarked) [Compound 7, dipsanoside M]", 4.08]
]}

So what pIC50 did C=CC1C(OC2OC(CO)C(O)C(O)C2O)OC=C(C(=O)OC2CC3C(C(=O)OC)=COC(OC4OC(CO)C(O)C(O)C4O)C3C2C)C1CC1OC(C)C(C)O1 (centres unmarked) [Compound 8, dipsanosides N] get with UniProt:P04585? 4.03
